Test system: MDA-MB-231
measurement-description: NCI tumour cell line growth inhibition, 48 h
Active and inactive are the calls of the source. No stated cut-off is given here; in the data, active = GI50 up to about 1.1 µM and inactive = higher.
recorded-endpoint: GI50

compound="CC1=NN(c2cccc(Cl)c2)C2(C1)SCC(=O)N2c1nc2ccccc2s1 (stereo not given)" recorded_endpoint=GI50 measured="19.1 µM (inactive)"
compound=Cc1ccc(Cc2n[nH]c(=O)n2/N=C\CC/C=N\n2c(Cc3ccc(C)cc3)n[nH]c2=O)cc1 recorded_endpoint=GI50 measured="31.3 µM (inactive)"
compound=CCNC(=S)NNC(=O)CSc1nc2ccc(I)cc2c(=O)n1Cc1ccccc1 recorded_endpoint=GI50 measured="41.5 µM (inactive)"
compound=COc1ccc(-c2c(CN3CCOCC3)sc3nc4ccccc4n23)cc1 recorded_endpoint=GI50 measured="23 µM (inactive)"
compound=COc1ccc(NC(=S)N/N=C/c2c(C)n(C)n(-c3ccccc3)c2=O)cc1 recorded_endpoint=GI50 measured="17.5 µM (inactive)"
compound=O=C(/C=C\Nc1ccccc1O)C(F)(F)F recorded_endpoint=GI50 measured="> 100 µM (inactive)"
compound=Cc1nnc(N2C(=O)C(=Cc3ccc(Cl)cc3)N=C2c2ccc(Cl)cc2)nc1/C=C\c1ccc(N(C)C)cc1 recorded_endpoint=GI50 measured="> 100 µM (inactive)"
compound="COc1ccc2nc3ccc(OC)cc3c([S+]([O-])CCCl)c2c1 (stereo not given)" recorded_endpoint=GI50 measured="5.87 µM (inactive)"
compound=O=C(O)CNCc1c2ccccc2nc2ccccc12 recorded_endpoint=GI50 measured="43 µM (inactive)"
compound="O=[N+]([O-])C(Cl)C(Cl)C(Cl)=C(Cl)Cl (stereo not given)" recorded_endpoint=GI50 measured="16.2 µM (inactive)"

Data provenance: ChEMBL document CHEMBL1201862
